Biological target: PIM1-form1 HP-G4
Assay: FIA binding test with PIM1-form1 HP-G4 ((3+1) hybrid structure)
pKd: −log10 of the molar value.

compound: COc1ccc(-c2noc(-c3ccc(NCCCNc4c5ccc(Cl)cc5nc5ccc(OC)cc45)nn3)n2)cc1 [B33]
pKd: 6.55

* * *

Target: MYCN G4 DNA
Test: Surface plasmon resonance (SPR) with immobilized biotinylated MYCN G4 DNA
Assay type: binding, human
Details: MYCN G4, Langmuir 1:1 model; read-out: SPR KD
pKd: −log10 of the molar value.
Values of pKd greater than or equal to 5 map to rule met; values below map to rule not met.

smilesRepr: COc1ccc(-c2noc(-c3ccc(NCCCN4CCC(C)CC4)nn3)n2)cc1
className: rule met
--
smilesRepr: COc1ccc(-c2noc(-c3ccc(NCCCN4CCCC4)nn3)n2)cc1
className: rule met
--
smilesRepr: COCCNc1ccc(-c2nc(-c3ccc(OC)cc3)no2)nn1
className: rule met
--
smilesRepr: COc1ccc(-c2noc(-c3ccc(NCCN4CCCC4)nn3)n2)cc1
className: rule not met
--
smilesRepr: COc1ccc(-c2noc(-c3ccc(NCCC(N)=O)nn3)n2)cc1
className: rule not met
--
smilesRepr: COc1ccc(-c2noc(-c3ccc(NCCCN4CCN(C)CC4)nn3)n2)cc1
className: rule met
--
smilesRepr: COc1ccc(-c2noc(-c3ccc(NCCCN4CCCCCC4)nn3)n2)cc1
className: rule met
--
smilesRepr: COc1ccc(-c2noc(-c3ccc(NCCCN4CCC(N5CCCCC5)CC4)nn3)n2)cc1
className: rule met
--
smilesRepr: COc1ccc(-c2noc(-c3ccc(NCCN(C)C)nn3)n2)cc1
className: rule met
--
smilesRepr: COc1ccc(-c2noc(-c3ccc(NCCN4CCN(C)CC4)nn3)n2)cc1
className: rule met
